Task for the reader: assign each of the following binders its reported IC50, hRANKL-inducible luciferase activity in HK293/RANK/NFκB-luc-eGFP cells.
Molecular target: T1, human RANKL (receptor activator of NF-κB ligand) (human, UniProt O14788 140-317, limits assumed)
T1 sequence: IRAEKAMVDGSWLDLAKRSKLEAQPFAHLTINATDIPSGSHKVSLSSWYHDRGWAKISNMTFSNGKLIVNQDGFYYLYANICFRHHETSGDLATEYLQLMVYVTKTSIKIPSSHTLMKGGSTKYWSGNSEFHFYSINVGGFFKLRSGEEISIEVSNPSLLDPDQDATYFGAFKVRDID
Assay: cell-based or functional assay
Numbers only, in nM.

Below, each entry is followed by its recorded IC50, hRANKL-inducible luciferase activity in HK293/RANK/NFκB-luc-eGFP cells result.
| BINDER | MEASURED_VALUE |
| --- | --- |
| H4H006P (antibody, V domains shown, Purified antibody from clone 2E11) VH: QVQLVESGGGVVQPGRSLRLSCAASGFTFGGYGMHWVRQAPDKGLEWVAVISYDGNNKYYVDSVKGRFTISRDNSKNMLYLQMNSLRAEDTAVYYCAKCLSGTYWGYGMDGWGQGTTVTVS VL: DIQMTQSPSTLSASVGDRVTITCRASQSISNWLAWYQQKPGKAPKLLIYKASNLQSGVPSRFSGSGSGTEFTLTISSLQPDDFATYYCQQYNNYSWTFGQGTKVEIK | 0.08 |
| H4H002P (antibody, V domains shown, Purified antibody from clone 1F8) VH: QVQLVESGGGVVQPGRSLRLSCAASGFTFTGYGMHWVRQAPDKGLEWVAVISYDGTNKYYVDSVKGRFTISRDNSQNTLYLQMNSLRAEDTAVYYCAKCLSGTYWGYGMDVWGQGTTVTVS VL: DIQMTQSPSTLSASVGDRVTITCRASRSINSWLAWYQQKPGKAPKLLIYKASSLESGVPSRFSGSGSGTEFTLTISSLQPDDFASYYCQQYNNYSWTFGQGTKVEIK | 0.214 |
| H4H007P (antibody, V domains shown, Purified antibody from clone 2E12) VH: QVQLVESGGGVVQPGRSLRLSCAASGFTFSGYGMHWVRQAPGMGLEWVAVISYDGINKYYADSVKGRFTISRDNSKNTLFLQMNSLRAEDTALYYCAKCLSGTYWGYGMDVWGQGTTVTVS VL: DIQMTQSPSTLSASVGDRVTITCRASQSISSWLAWYQLKPGKAPKLLIYKASSLESGVPSRFGGSGSGTEFTLTISSLQPDDFATYYCQHYNSYSWTFGQGTKVEIK | 0.452 |

input: For the binder H4H010P (antibody, V domains shown, Purified antibody from clone 2H12) VH: QVQLVESGGGVVQPGRSLRLSCAASGFTFSGYGMHWVRQAPGKGLDWVTVISYDGSNKHYADSVKGRFTISRDNSKNTLYLQMSSLGPEDTAVYYCAKSLSGTYWGYGMDVWGQGTTVTVS VL: DIQMTQSPSTLSASVGDRVTITCRASQNISSWLAWYQQKPGKAPKLLIYKASSLESGVPSRFSGSGSGTEFTLTVSSLQPDDFATYYCQQYNRYSWTFGQGTKVEIK , report IC50, hRANKL-inducible luciferase activity in HK293/RANK/NFκB-luc-eGFP cells.
output: 0.051

Measured values drawn from patent US20120114665A1 for this set.
